# Tested on: IGR-37 (Melanoma);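 also: after 72 h of two-drug dosing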
# experimental_details: Bliss excess, mean over the matrix (fraction); higher = more synergy
assay_readout: Bliss excess
Answers are plain numbers.

Hey, can you go through the list below and give me Bliss excess for every item?
1. CCN(CCO)CCCOc1ccc2c(Nc3cc(CC(=O)Nc4cccc(F)c4)[nH]n3)ncnc2c1 [AZD2811] + C=CCn1c(=O)c2cnc(Nc3ccc(N4CCN(C)CC4)cc3)nc2n1-c1cccc(C(C)(C)O)n1 [AZD1775] (first compound max 1 µM, partner max 1 µM)
2. Cc1c2c(nn1C)CSCc1cc(n(C)n1)CSc1cc(c3ccccc3c1)OCCCc1c(C(=O)O)n(C)c3c-2c(Cl)ccc13 [AZD5991] + CC(=O)O[C@H]1C(=O)[C@@]2(C)[C@H]([C@H](OC(=O)c3ccccc3)[C@]3(O)C[C@H](OC(=O)[C@H](O)[C@@H](NC(=O)c4ccccc4)c4ccccc4)C(C)=C1C3(C)C)[C@]1(OC(C)=O)CO[C@@H]1C[C@@H]2O [Paclitaxel] (first compound max 1 µM, 7x7, partner max 3 µM)
3. COc1nnc2ccc(N3CCC(c4ccc(OCCN5CCN(C)C(=O)[C@H]5C)cc4)CC3)nn12 [AZD5153] + Cc1c2c(nn1C)CSCc1cc(n(C)n1)CSc1cc(c3ccccc3c1)OCCCc1c(C(=O)O)n(C)c3c-2c(Cl)ccc13 [AZD5991] (first compound max 1 µM, 7x7, partner max 1 µM)
4. CN(CCO)CC[C@H](CSc1ccccc1)Nc1ccc(S(=O)(=O)NC(=O)c2ccc(N3CCC([C@@H](O)c4ccccc4-c4ccc(Cl)cc4)CC3)cc2)cc1S(=O)(=O)C(F)(F)F [AZD4320] + CC(=O)O[C@H]1C(=O)[C@@]2(C)[C@H]([C@H](OC(=O)c3ccccc3)[C@]3(O)C[C@H](OC(=O)[C@H](O)[C@@H](NC(=O)c4ccccc4)c4ccccc4)C(C)=C1C3(C)C)[C@]1(OC(C)=O)CO[C@@H]1C[C@@H]2O [Paclitaxel] (first compound max 1 µM, 7x7, partner max 3 µM)
5. COc1cccc(OCCCN)c1-c1cc(Nc2cnc(C#N)cn2)n[nH]1 [Prexasertib] + CN(C)CCCOc1ccc(-c2ccc3ncc4c(c3c2)n(C2CCOCC2)c(=O)n4C)cn1 [AZD0156] (first compound max 1 µM, 7x7, partner max 1 µM)

a:
1: -0.023; 2: 0.0439; 3: 0.0608; 4: -0.0174; 5: 0.0026

q: Please report the recorded Bliss excess for CC1(C)CCC(CN2CCN(c3ccc(C(=O)NS(=O)(=O)c4ccc(NCC5CCOCC5)c([N+](=O)[O-])c4)c(Oc4cnc5[nH]ccc5c4)c3)CC2)=C(c2ccc(Cl)cc2)C1 [Venetoclax] + Cn1cnc2c(F)c(Nc3ccc(Br)cc3Cl)c(C(=O)NOCCO)cc21 [Selumetinib] (first compound max 1 µM, 7x7, partner max 3 µM) .
a: -0.0499
